assay: folding enthalpy; higher = less favourable; fluorescence melt of hairpins on a sequencing array, two-state fit; settings: sodium 0.088 M
EXPERIMENTAL READOUT: folding enthalpy (kcal/mol)
Reply with just the number (in kcal/mol).

GCCAGGCGAAAGCCCTGC ((..(((....)))..)) has a reported folding enthalpy of -12.4

GGCGGAGGAAACTCCGTC (.(((((....))))).) has a reported folding enthalpy of -25.7

GGAGCGCCGAAAGGCTCC (((..(((....)))))) has a reported folding enthalpy of -14.7

GATCACCGTAGTGATC ((((((....)))))) has a reported folding enthalpy of -51.1

GCCCTGCGAAAGCAGGC (((.(((....)))))) has a reported folding enthalpy of -8.08

GATCAAGTACTTGATC ((((((....)))))) has a reported folding enthalpy of -45.2

GATCAAGCCGTTGATC ((((((....)))))) has a reported folding enthalpy of -29.4

GCGTGGCGAAAGCGCCGC (((..((....))..))) has a reported folding enthalpy of -19.1

GGGGTCGAAAGACGACCC ((((((....)))..))) has a reported folding enthalpy of -19.6

GCCATACCGAAAGGTGGC (((..(((....)))))) has a reported folding enthalpy of -24.4

GTTAGCGAAAGCTAAC ((((((....)))))) has a reported folding enthalpy of -28.2

GATCAACTATTTGATC ((((((....)))))) has a reported folding enthalpy of -31.5

GGACATGGAAACGTGTCC (((((.(....).))))) has a reported folding enthalpy of -45.1

GCTTAGCGAAAGCTCGGC ((..(((....)))..)) has a reported folding enthalpy of -17.7

GGCACCGAAAGGTCAGCC ((((((....)))..))) has a reported folding enthalpy of -24.2

GGAACTGGAAACAGTTTC (.(((((....))))).) has a reported folding enthalpy of -27.7

CTCGGGAAACCGAG (((((....))))) has a reported folding enthalpy of -23.9

GTCCCAGGAAACTGGGAC (((((((....))))))) has a reported folding enthalpy of -35.7

GGTGGCGAAAGCCACACC ((((((....)))..))) has a reported folding enthalpy of -6.43

GTACGGGAAACCGTAC ((((((....)))))) has a reported folding enthalpy of -27.9

GGGGGCGAAAGCCCGCCC ((((((....)))..))) has a reported folding enthalpy of -9.36

GCAATAACGAAAGTTTGC (((..(((....)))))) has a reported folding enthalpy of -26

GGTGTGCGAAAGCATACC (((.(((....))).))) has a reported folding enthalpy of -38.4

GCGACCCTTCGC ((((....)))) has a reported folding enthalpy of -26.3

GACTTCGGAAACGAAGCC (.(((((....))))).) has a reported folding enthalpy of -15

====

test: folding enthalpy; higher = less favourable; fluorescence melt of hairpins on a sequencing array, two-state fit; conditions: sodium 0.088 M
Threshold rule: folding enthalpy greater than or equal to -20 kcal/mol is Met; below that, Not met.

Does GATCATTGGAATGATC ((((((....)))))) have a reported folding enthalpy of at least -20 kcal/mol? Not met

Does GGGAGCTCGAAAGAGCCC (((..(((....)))))) have a reported folding enthalpy of at least -20 kcal/mol? Met

Does GCTCACGGAAACATGAGC (((((.(....).))))) have a reported folding enthalpy of at least -20 kcal/mol? Not met

Does GATCCGTAGCCGGATC ((((((....)))))) have a reported folding enthalpy of at least -20 kcal/mol? Not met

Does GGTTGCGAAAGCAATACC ((((((....)))..))) have a reported folding enthalpy of at least -20 kcal/mol? Met

Does GTCTCCCGAAAGGGTGAC (((.(((....))).))) have a reported folding enthalpy of at least -20 kcal/mol? Not met

Does GTGAACGAAAGTTGCCAC ((((((....)))..))) have a reported folding enthalpy of at least -20 kcal/mol? Met

Does GGGATGAAAATCCC (((((....))))) have a reported folding enthalpy of at least -20 kcal/mol? Not met

Does GATCCATTCTTGGATC ((((((....)))))) have a reported folding enthalpy of at least -20 kcal/mol? Not met

Does GAAGCCCGAAAGGGGTTC (((.(((....))).))) have a reported folding enthalpy of at least -20 kcal/mol? Not met

Does GAACTCCGAAAGGAATTC (((.(((....))).))) have a reported folding enthalpy of at least -20 kcal/mol? Not met

Does TGAGCGAAAGCTCA (((((....))))) have a reported folding enthalpy of at least -20 kcal/mol? Met

Does GCCACGCGAAAGCTTAGC ((.(.((....)).).)) have a reported folding enthalpy of at least -20 kcal/mol? Met

Does GTCACAGGAAACTGTGAC (((((((....))))))) have a reported folding enthalpy of at least -20 kcal/mol? Not met

Does GGAAGTGAAAACTTCC ((((((....)))))) have a reported folding enthalpy of at least -20 kcal/mol? Not met

Does AAGTTGAAAAACTT (((((....))))) have a reported folding enthalpy of at least -20 kcal/mol? Met

Does GATCAGGGTACTGATC ((((((....)))))) have a reported folding enthalpy of at least -20 kcal/mol? Not met

Does GTTGCTACGAAAGTAAAC (((..(((....)))))) have a reported folding enthalpy of at least -20 kcal/mol? Met

Does GCTGAGCGAAAGCAGAGC (((..((....))..))) have a reported folding enthalpy of at least -20 kcal/mol? Met

Does GCTTGGCGAAAGCCCAGC (((.(((....))).))) have a reported folding enthalpy of at least -20 kcal/mol? Not met

Does GGACTGACGAAAGTCTCC (((..(((....)))))) have a reported folding enthalpy of at least -20 kcal/mol? Met

Does GCGACAGATCGC ((((....)))) have a reported folding enthalpy of at least -20 kcal/mol? Not met

Does GATCTTACAGAAGATC ((((((....)))))) have a reported folding enthalpy of at least -20 kcal/mol? Not met

Does GGGTACGAAAGTATACCC ((((((....)))..))) have a reported folding enthalpy of at least -20 kcal/mol? Not met

Does GATTGCGAAAGCATGATC ((((((....)))..))) have a reported folding enthalpy of at least -20 kcal/mol? Met

Does GCCCCGCGAAAGCATGGC (((..((....))..))) have a reported folding enthalpy of at least -20 kcal/mol? Met

The reported numbers originate from the array DNA melting data of Ke et al. (doi:10.1101/2024.01.08.574731).
